- experimental_protocol: Apparent permeability in dog MDCK cells
- Assay type: ADME, cell-based, Canis lupus familiaris
Assignment: determine reported Papp for the given compounds.
Value expressed in ×10⁻⁶ cm/s; do not type the unit.

Looking for the measured Papp of CNC(=O)c1c(-c2ccc(F)cc2)oc2cc(N(C)S(C)(=O)=O)c(-c3ccc4ncn5c6cccc(F)c6cc5c4n3)cc12 , can you help?
10.2

Param item = CNC(=O)c1c(-c2ccc(F)cc2)oc2cc(N(C)S(C)(=O)=O)c(-c3ccc4c(n3)-c3cc5c(F)cccc5n3CN4)cc12 ; retrieve measured Papp.
8.9

// Papp lookup, key: CNC(=O)c1c(-c2ccc(F)cc2)oc2cc(N(C)S(C)(=O)=O)c(-c3ccc4c(n3)-c3cc5c(F)cccc5n3CO4)cc12
7.9

Item CNC(=O)c1c(-c2ccc(F)cc2)oc2cc(N(C)S(C)(=O)=O)c(-c3ccc4c(n3)-c3cc5c(F)cccc5n3CC4)cc12 has what recorded Papp?
14.2

----------
- experimental_protocol: Half life in rat at 1 mg/kg, iv
- Assay type: ADME, organism-based
- applied_conditions: in vivo
Binary call on half-life with cut-off 500 min: strictly below means t, and equality or higher means f.

For CNC(=O)c1c(-c2ccc(F)cc2)oc2cc(N(C)S(C)(=O)=O)c(-c3ccc4c(n3)-c3cc5c(F)cccc5n3CC4)cc12 , is the recorded half-life below the cut-off of 500 min?
f

half-life strictly < 500 min for this molecule? CNC(=O)c1c(-c2ccc(F)cc2)oc2cc(N(C)S(C)(=O)=O)c(-c3ccc4c(n3)-c3cc5c(F)cccc5n3CN4)cc12
t

For this molecule, is half-life lower than 500 min? CNC(=O)c1c(-c2ccc(F)cc2)oc2cc(N(C)S(C)(=O)=O)c(-c3cc4n(c(=O)c3)CCn3c-4cc4c(F)cccc43)cc12
t

Is the reported half-life for CNC(=O)c1c(-c2ccc(F)cc2)oc2cc(N(C)S(C)(=O)=O)c(-c3ccc4ccn5c6cccc(F)c6cc5c4n3)cc12 strictly below 500 min?
f

Take the molecule CNC(=O)c1c(-c2ccc(F)cc2)oc2cc(N(C)S(C)(=O)=O)c(-c3ccc4c(n3)-c3cc5c(F)cccc5n3C4)cc12 and say whether its half-life is less than 500 min.
f

----------
- experimental_protocol: Cmax in rat at 650 mg/kg, po using spray dry sample
- Type: ADME, organism-based
- Set-up: dose 650 mg/kg, route oral
- applied_conditions: in vivo
quantity_measured: Cmax (µM)
Give the value, in units of µM, as a plain number.

Consider the molecule shown here: CNC(=O)c1c(-c2ccc(F)cc2)oc2cc(N(C)S(C)(=O)=O)c(-c3ccc4c(n3)-c3cc5c(F)cccc5n3CO4)cc12 What is its recorded Cmax?
12

Can you share its Cmax? I mean this molecule: CNC(=O)c1c(-c2ccc(F)cc2)oc2cc(N(C)S(C)(=O)=O)c(-c3ccc4c(n3)-c3cc5c(F)cccc5n3CC4)cc12
11

----------
- experimental_protocol: Oral bioavailability in dog at 2 mg/kg
- Assay type: ADME, organism-based, Canis lupus familiaris
- applied_conditions: in vivo
I'd appreciate it if you could supply bioavailability values for the items below.
Number first, unit second.

Which bioavailability is listed for CNC(=O)c1c(-c2ccc(F)cc2)oc2cc(N(C)S(C)(=O)=O)c(-c3ccc4c(n3)-c3cc5c(F)cccc5n3CN4)cc12 ?
30%

What bioavailability value was documented for this molecule, CNC(=O)c1c(-c2ccc(F)cc2)oc2cc(N(C)S(C)(=O)=O)c(-c3ccc4ncn5c6cccc(F)c6cc5c4n3)cc12 ?
64%

Query (molecule): CNC(=O)c1c(-c2ccc(F)cc2)oc2cc(N(C)S(C)(=O)=O)c(-c3ccc4ccn5c6cccc(F)c6cc5c4n3)cc12 ; field requested: bioavailability
43%

Looking for the measured bioavailability of CNC(=O)c1c(-c2ccc(F)cc2)oc2cc(N(C)S(C)(=O)=O)c(-c3ccc4c(n3)-c3cc5c(F)cccc5n3CC4)cc12 , can you help?
54%

----------
- experimental_protocol: AUC in rat at 5 mg/kg, po
- Type: ADME, organism-based
- applied_conditions: in vivo
Use 1 µM·h as the dividing line for AUC, with the line itself on the Met side and lower values as Not met.

State whether the measured AUC reaches 1 µM·h, counting equality as reaching it, for CNC(=O)c1c(-c2ccc(F)cc2)oc2cc(N(C)S(C)(=O)=O)c(-c3ccc4ccn5c6cccc(F)c6cc5c4n3)cc12
Met

// inclusive: AUC at least 1 µM·h? input: CNC(=O)c1c(-c2ccc(F)cc2)oc2cc(N(C)S(C)(=O)=O)c(-c3ccc4c(n3)-c3cc5c(F)cccc5n3C4)cc12
Met

AUC >= 1 µM·h for CNC(=O)c1c(-c2ccc(F)cc2)oc2cc(N(C)S(C)(=O)=O)c(-c3ccc4c(n3)-c3cc5c(F)cccc5n3CN4)cc12 ?
Met

Is AUC for CNC(=O)c1c(-c2ccc(F)cc2)oc2cc(N(C)S(C)(=O)=O)c(-c3ccc4c(n3)-c3cc5c(F)cccc5n3CC4)cc12 at or above 1 µM·h?
Met

Does the molecule CNC(=O)c1c(-c2ccc(F)cc2)oc2cc(N(C)S(C)(=O)=O)c(-c3ccc4ncn5c6cccc(F)c6cc5c4n3)cc12 have recorded AUC that is 1 µM·h or more?
Met

Is the recorded value of AUC equal to or greater than 1 µM·h for this molecule? CNC(=O)c1c(-c2ccc(F)cc2)oc2cc(N(C)S(C)(=O)=O)c(-c3cc4n(c(=O)c3)CCn3c-4cc4c(F)cccc43)cc12
Not met

----------
- experimental_protocol: AUC in rat at 10 mg/kg, po using spray dry sample
- Type: ADME, organism-based
- applied_conditions: in vivo
Please go through the items and note down their AUC.
Entry rule: numbers only, all in µM·h.

Which measured AUC value corresponds to CNC(=O)c1c(-c2ccc(F)cc2)oc2cc(N(C)S(C)(=O)=O)c(-c3ccc4ncn5c6cccc(F)c6cc5c4n3)cc12 ?
32

Need AUC, item CNC(=O)c1c(-c2ccc(F)cc2)oc2cc(N(C)S(C)(=O)=O)c(-c3ccc4c(n3)-c3cc5c(F)cccc5n3CC4)cc12
37

# get_value(readout='AUC', item= CNC(=O)c1c(-c2ccc(F)cc2)oc2cc(N(C)S(C)(=O)=O)c(-c3ccc4c(n3)-c3cc5c(F)cccc5n3CO4)cc12 )
16

----------
- experimental_protocol: Cmax in rat at 300 mg/kg, po using spray dry sample
- Type: ADME, organism-based
- Set-up: dose 300 mg/kg, route oral
- applied_conditions: in vivo
quantity_measured: Cmax (µM)
Write down the numeric answer in µM and omit the unit.

Data request, read-out Cmax, for CNC(=O)c1c(-c2ccc(F)cc2)oc2cc(N(C)S(C)(=O)=O)c(-c3ccc4ncn5c6cccc(F)c6cc5c4n3)cc12
5.6

----------
Give measured Cmax for each item. Keep answers brief.
- experimental_protocol: Cmax in rat at 5 mg/kg, po
- Assay type: ADME, organism-based
- Parameters: dose 5 mg/kg, route oral
- applied_conditions: in vivo
Give the value in nM but do not write nM after it.

Return reported Cmax; argument: CNC(=O)c1c(-c2ccc(F)cc2)oc2cc(N(C)S(C)(=O)=O)c(-c3ccc4ccn5c6cccc(F)c6cc5c4n3)cc12
450

Can you look up the measured Cmax of CNC(=O)c1c(-c2ccc(F)cc2)oc2cc(N(C)S(C)(=O)=O)c(-c3ccc4c(n3)-c3cc5c(F)cccc5n3CN4)cc12 for me?
350

Given the entry CNC(=O)c1c(-c2ccc(F)cc2)oc2cc(N(C)S(C)(=O)=O)c(-c3ccc4c(n3)-c3cc5c(F)cccc5n3CC4)cc12 , report its measured Cmax.
950

// Cmax lookup, key: CNC(=O)c1c(-c2ccc(F)cc2)oc2cc(N(C)S(C)(=O)=O)c(-c3ccc4ncn5c6cccc(F)c6cc5c4n3)cc12
580

Fill in the blank: the reported Cmax of CNC(=O)c1c(-c2ccc(F)cc2)oc2cc(N(C)S(C)(=O)=O)c(-c3cc4n(c(=O)c3)CCn3c-4cc4c(F)cccc43)cc12 is ____.
190

// returns reported Cmax for input CNC(=O)c1c(-c2ccc(F)cc2)oc2cc(N(C)S(C)(=O)=O)c(-c3ccc4c(n3)-c3cc5c(F)cccc5n3C4)cc12
120

----------
- experimental_protocol: Drug concentration in monkey plasma at 3 mg/kg, po after 24 hrs
- Assay type: ADME, organism-based, Macaca mulatta
- applied_conditions: rhesus monkey
quantity_measured: concentration at 24 h (nM)
Report the value in nM with no unit label.

Entry CNC(=O)c1c(-c2ccc(F)cc2)oc2cc(N(C)S(C)(=O)=O)c(-c3ccc4ccn5c6cccc(F)c6cc5c4n3)cc12 : reported concentration at 24 h = ?
31

# concentration at 24 h lookup, item CNC(=O)c1c(-c2ccc(F)cc2)oc2cc(N(C)S(C)(=O)=O)c(-c3ccc4c(n3)-c3cc5c(F)cccc5n3CC4)cc12
6.3

What does the record list as concentration at 24 h for CNC(=O)c1c(-c2ccc(F)cc2)oc2cc(N(C)S(C)(=O)=O)c(-c3ccc4c(n3)-c3cc5c(F)cccc5n3CN4)cc12 ?
4

Any idea what its concentration at 24 h is? The molecule is CNC(=O)c1c(-c2ccc(F)cc2)oc2cc(N(C)S(C)(=O)=O)c(-c3ccc4ncn5c6cccc(F)c6cc5c4n3)cc12
10
